# target system: 26S proteasome non-ATPase regulatory subunit 14 (Homo sapiens) (UniProt O00487)
# Sequence (O00487 whole entry, looked up): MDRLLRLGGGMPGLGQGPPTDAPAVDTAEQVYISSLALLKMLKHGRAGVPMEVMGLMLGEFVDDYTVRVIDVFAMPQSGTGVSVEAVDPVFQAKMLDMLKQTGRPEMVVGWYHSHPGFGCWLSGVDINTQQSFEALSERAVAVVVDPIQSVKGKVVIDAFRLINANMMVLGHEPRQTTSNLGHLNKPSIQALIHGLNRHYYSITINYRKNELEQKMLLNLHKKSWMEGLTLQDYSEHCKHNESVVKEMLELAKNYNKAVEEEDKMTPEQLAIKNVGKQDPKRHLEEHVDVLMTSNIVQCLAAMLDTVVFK
# measurement description: Rpn11 (PSMD14) deubiquitinase inhibitors, dose response, biochemical, fluorescence polarization, human 26S proteasome, uHTS hits (AID 686917)
# condition details: purified human 26S proteasome, Ub4-pepOG fluorescence polarization
pIC50: −log10 of the molar value.
measured attribute: pIC50

structure_string=C[C@@H](C(=O)O)N(C)C(=O)c1cnc2c(SSc3cccc4cc(C(=O)N(C)[C@@H](C)C(=O)O)cnc34)cccc2c1 measured_attribute=pIC50 number=5.23
structure_string=COc1ccc(C(=O)Sc2cccc3cccnc23)cc1 measured_attribute=pIC50 number=5.36
structure_string=COC(=O)[C@@H]1CCCN1C(=O)c1cnc2c(SSc3cccc4cc(C(=O)N5CCC[C@H]5C(=O)OC)cnc34)cccc2c1 measured_attribute=pIC50 number=5.47
structure_string=O=C(Sc1cccc2cccnc12)c1ccc(F)cc1 measured_attribute=pIC50 number=5.27
structure_string=O=C(Sc1cccc2cccnc12)c1ccc(F)c(F)c1 measured_attribute=pIC50 number=5.43
structure_string=O=C(Sc1cccc2cccnc12)c1ccccc1Cl measured_attribute=pIC50 number=5.24
structure_string=COc1ccc(C(=O)Sc2cccc3cccnc23)cc1F measured_attribute=pIC50 number=5.45
structure_string=CC(C)C[C@H](NC(=O)c1cnc2c(SSc3cccc4cc(C(=O)N[C@@H](CC(C)C)C(=O)O)cnc34)cccc2c1)C(=O)O measured_attribute=pIC50 number=5.60
structure_string=COC(=O)c1cnc2c(SSc3cccc4cc(C(=O)OC)cnc34)cccc2c1 measured_attribute=pIC50 number=5.47
structure_string=Cc1ccccc1C(=O)Sc1cccc2cccnc12 measured_attribute=pIC50 number=4.96
structure_string=O=C(Sc1cccc2cccnc12)c1c(Cl)cccc1Cl measured_attribute=pIC50 number=5.83
structure_string=O=C(O)c1cnc2c(SSc3cccc4cc(C(=O)O)cnc34)cccc2c1 measured_attribute=pIC50 number=5.90
structure_string=O=C(Sc1cccc2cccnc12)c1cccc(C(F)(F)F)c1 measured_attribute=pIC50 number=5.07
structure_string=CC(C)Cc1ccc(C(=O)Sc2cccc3cccnc23)cc1 measured_attribute=pIC50 number=5.61
structure_string=O=C(Sc1cccc2cccnc12)C1CCCCC1 measured_attribute=pIC50 number=6.18
structure_string=N#Cc1cccc(C(=O)Sc2cccc3cccnc23)c1 measured_attribute=pIC50 number=4.80
structure_string=O=C(Sc1cccc2cccnc12)c1ccc([N+](=O)[O-])cc1 measured_attribute=pIC50 number=5.00
structure_string=O=C(O)[C@@H]1CCCN1C(=O)c1cnc2c(SSc3cccc4cc(C(=O)N5CCC[C@H]5C(=O)O)cnc34)cccc2c1 measured_attribute=pIC50 number=5.77
structure_string=COc1cccc(C(=O)Sc2cccc3cccnc23)c1 measured_attribute=pIC50 number=5.83
structure_string=COC(=O)[C@H](C)N(C)C(=O)c1cnc2c(SSc3cccc4cc(C(=O)N(C)[C@@H](C)C(=O)OC)cnc34)cccc2c1 measured_attribute=pIC50 number=5.37
structure_string=CCCc1ccc(C(=O)Sc2cccc3cccnc23)cc1 measured_attribute=pIC50 number=5.58
structure_string=CC[C@@H](C)[C@H](NC(=O)c1cnc2c(SSc3cccc4cc(C(=O)N[C@H](C(=O)O)[C@H](C)CC)cnc34)cccc2c1)C(=O)O measured_attribute=pIC50 number=5.74
structure_string=COC(=O)[C@H](C)NC(=O)c1ccnc2c(SSc3cccc4c(C(=O)N[C@@H](C)C(=O)OC)ccnc34)cccc12 measured_attribute=pIC50 number=5.36
structure_string=COC(=O)[C@H](C)NC(=O)c1cnc2c(SSc3cccc4cc(C(=O)N[C@@H](C)C(=O)OC)cnc34)cccc2c1 measured_attribute=pIC50 number=5.30
structure_string=Cc1cccc(C(=O)Sc2cccc3cccnc23)c1 measured_attribute=pIC50 number=5.90
structure_string=COC(=O)[C@H](CO)NC(=O)c1cnc2c(SSc3cccc4cc(C(=O)N[C@@H](CO)C(=O)OC)cnc34)cccc2c1 measured_attribute=pIC50 number=5.31
structure_string=O=C(Sc1cccc2cccnc12)c1cccc(Cl)c1 measured_attribute=pIC50 number=5.93
structure_string=COC(=O)[C@@H](NC(=O)c1cnc2c(SSc3cccc4cc(C(=O)N[C@H](C(=O)OC)C(C)C)cnc34)cccc2c1)C(C)C measured_attribute=pIC50 number=5.40
